nuclei count overview
test.protocol: inhibitors of E-selectin induction by TNFa, primary screen, imaging, HUVEC, immunofluorescence, MLSMR starter and 10KST1 sets (AID 487);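 note: 100% = median nuclei count of all wells on the same plate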
measurement.parameters: HUVEC TNFalpha-induced E-selectin immunofluorescence imaging, at 2 µM; measured here: cell number, toxicity

compound: O=C(c1cnn2c1NC(c1ccco1)CC2C(F)(F)F)N1CCN(c2cccc(Cl)c2)CC1 (stereo not drawn)
nuclei count: 126%
--
compound: CCn1c(=O)cc(OCC(=O)NC2CCCCC2)c2ccccc21
nuclei count: 113%

Query: Write down nuclei count measured for item O=C(NCCCNC(=O)c1ccccn1)c1ccccn1
Response: 105%

----------
Examples of molecules with documented slope follow.
tested.target: Alpha-2C adrenergic receptor (Homo sapiens) (UniProt P18825)
Sequence (P18825 whole entry, looked up): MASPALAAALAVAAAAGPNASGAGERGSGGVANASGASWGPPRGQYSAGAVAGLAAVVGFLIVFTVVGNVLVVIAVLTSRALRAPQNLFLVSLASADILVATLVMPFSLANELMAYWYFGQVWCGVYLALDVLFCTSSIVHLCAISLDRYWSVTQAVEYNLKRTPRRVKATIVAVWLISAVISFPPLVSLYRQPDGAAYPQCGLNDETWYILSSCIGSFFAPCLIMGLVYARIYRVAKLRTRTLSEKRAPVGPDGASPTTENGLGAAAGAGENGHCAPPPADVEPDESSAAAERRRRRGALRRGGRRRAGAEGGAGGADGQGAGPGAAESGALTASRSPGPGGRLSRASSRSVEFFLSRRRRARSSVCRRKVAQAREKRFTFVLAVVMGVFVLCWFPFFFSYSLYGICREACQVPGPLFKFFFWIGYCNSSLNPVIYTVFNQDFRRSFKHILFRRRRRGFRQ
test.protocol: modulators of alpha2C/GIRK thallium flux, primary screen, cell-based, HEK293 alpha2C/GIRK1/2 (AID 624);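 note: slope of fluorescence ratio to pre-addition baseline per second over 15 to 24 s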
measurement.parameters: thallium flux BTC fluorescence, at 10 µM, actives lie on both sides
Lab note: write the figure by itself, no unit.

Here are 3 molecules together with their reported answers.
molecule: CCCOc1ccc(N2CC(C(=O)Nc3ccc4c(c3)OCO4)CC2=O)cc1 (centres undefined)
slope: 0.00561

molecule: COc1cc(S(=O)(=O)N(C)C)ccc1F
slope: 0.00561

molecule: CCOC(=O)c1oc2cccc(OC(C)=O)c2c1C
slope: 0.00384

Okay, now this molecule:
Query: Please report the measured slope for c1ccc(-c2cc(N3CCCCC3)ncn2)cc1
Response: 0.00423

----------
tested.target: Voltage-gated potassium channel subunit beta-2 (Rattus norvegicus)
test.protocol: KvBeta positive modulators, primary screen, biochemical, NADPH fluorescence (AID 623);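 note: fluorescence intensity change per second fitted from 20 to 320 s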
measurement.parameters: Recombinant KvBeta, NADPH fluorescence decrease slope, 10 min; at 10 µM; stronger effect = lower value
# NADPH fluorescence slope per entry
# print the numeric value only

Solved cases below.
compound: Nc1c2c(nc3ccccc13)N(C1CCCCC1)CC2
NADPH fluorescence slope: -2.9e-05

compound: COCCNC(=O)C(c1ccc(O)cc1)N(Cc1ccco1)C(=O)CCC(=O)Nc1nccs1 (stereo not given)
NADPH fluorescence slope: 4.7e-06

compound: C=CCOC(=O)C1=C(C)OC(N)=C(C#N)C1c1ccc2c(c1)OCO2 (stereo not given)
NADPH fluorescence slope: -3.1e-05

Query: Tell me NADPH fluorescence slope reported for CCOC(=O)C1CCN(C(=O)C2(NC(=O)Nc3ccccc3Cl)CCCCC2)CC1
Response: 5.4e-06

Query: Respond only with NADPH fluorescence slope recorded for COc1ccc(C2CC(=O)C3=C(C2)Nc2ccccc2N(C(=O)C2CC2)C3c2cccnc2)cc1OC (stereo not given)
Response: 7.5e-06

Query: Check the records and state NADPH fluorescence slope for O=C(Nc1ccc2snnc2c1)N1CCN(c2ccccc2)CC1
Response: 7.2e-06

Query: Quick one: give measured NADPH fluorescence slope for O=C(NCCN1CCOCC1)c1ccc(=O)oc1
Response: -8.3e-05

Query: Supply measured NADPH fluorescence slope of CCCCCCC1/C(=N/O)CCC1C(=O)OC (stereo not given) in your reply.
Response: -8.9e-06

----------
test.protocol: inhibitors of TNFa-induced NFkB p65 translocation, primary screen, imaging, HUVEC, MLSMR starter and 10KST1 sets (AID 438);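 note: compound added about 3h40 before a 20 min TNFalpha stimulation; signal is the nuclear over cytoplasmic p65 intensity ratio per well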
measurement.parameters: HUVEC TNFa-induced p65 nuclear translocation; at 2 µM, stronger effect = higher value, 0% TNFa-plus-vehicle, 100% no-TNFa wells
Items are presented alongside their recorded inhibition.
Only the number, expressed in %, is required.

# count of solved cases: 6
molecule: CCC(=NC(CC)CO)C1=C(O)CC(C)(C)CC1=O (configuration not stated)
inhibition / %: -11.6

molecule: COc1cc(C(=O)Nc2ccc(O)cc2C(=O)O)ccc1OC(C)=O
inhibition / %: 3.6

molecule: CCOC(=O)C1=C(c2ccccc2)N2CCN=C2S1
inhibition / %: -12.1

molecule: Nn1c(SCC(=O)NC2CCCCC2)nnc1C1CC1
inhibition / %: -28.7

molecule: CN(CC(=O)O)S(=O)(=O)c1cc(Cl)ccc1Cl
inhibition / %: 3.5

molecule: CCOC(=O)N1CCC(n2c(=S)[nH]c3cc(OC)c(OC)cc3c2=O)CC1
inhibition / %: 4.8

Query: Report measured inhibition; entry is CCOC(=O)C(NC(=O)Nc1ccccc1)(OCC)C(F)(F)F (configuration not stated)
Response: -2.4

Query: Find the measured inhibition of CN(C)/C=C1\N=C(c2ccc3c(c2)OCO3)OC1=O and report it.
Response: 15.8

Query: Give reported inhibition value for Cc1c(C#N)c2ncnc(-c3ccccc3)c2n1-c1ccccc1
Response: 0.4

Query: Using the record for CN(C)c1ccc(NC(=O)c2sc(SCC(=O)Nc3nccs3)nc2N)cc1 , state its measured inhibition.
Response: -11.3

Query: Write down inhibition measured for item CCCNS(=O)(=O)c1ccc(OCC(=O)NCc2ccco2)cc1
Response: 11.7

Query: Report measured inhibition; entry is O=c1sc(Nc2ccccc2)nc2ccsc12
Response: -9.8

Query: Identify the reported inhibition for the following entry. COc1cccc(-c2nc(CSCC(=O)N3CCc4ccccc43)c(C)o2)c1
Response: 8.5

Query: For the molecule CCCCCOC(=O)C(C)c1c(C)[nH]c(=S)[nH]c1=O (configuration not stated) , report inhibition.
Response: -1.4

Query: Annotate the molecule Cc1csc(NC(=O)c2cc3c(s2)-c2ccccc2OC3)n1 with its measured inhibition.
Response: 8.8

Query: Provide one value: measured inhibition of COc1ccc(Cn2nnnc2C(c2cccnc2)N2CCN(c3ccc(O)cc3)CC2)cc1 (configuration not stated)
Response: -7.2

Query: Respond only with inhibition recorded for C/C=C(\CS(=O)(=O)c1ccccc1)S(=O)(=O)c1ccccc1
Response: 2.2

----------
tested.target: Alpha-2C adrenergic receptor (Homo sapiens)
test.protocol: modulators of alpha2C/GIRK thallium flux, primary screen, cell-based, HEK293 alpha2C/GIRK1/2 (AID 624);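 note: slope of fluorescence ratio to pre-addition baseline per second over 15 to 24 s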
measurement.parameters: thallium flux BTC fluorescence, at 10 µM, actives lie on both sides
reported.metric: slope
Form: value (number only, do not type unit).

compound: Cc1ccccc1OCC(O)CN (stereo not given)
slope: 0.00273
--
compound: CCn1c(=O)c(C(=O)NCCc2ccccc2)c(O)c2ccccc21
slope: 0.0106
--
compound: CCOC(=O)N1CCC(c2cc(=O)n3[nH]c(C)c(-c4ccc(F)cc4)c3n2)CC1
slope: 0.00863
--
compound: O=C(CCS(=O)(=O)c1cccc2nsnc12)NCc1ccccc1
slope: 0.00505
--
compound: CC1CCCC(C)N1C(=O)COC(=O)c1ccc[nH]c1=O (stereo not given)
slope: 0.00649

Query: Give the measured slope for O=C1OC2(c3ccccc3)C3CCCC2C13
Response: 0.00538

Query: In one line, give reported slope of the entry Cc1nc(N2CCC(C)CC2)c2c(C)c(C(=O)O)sc2n1 .
Response: 0.00417

Query: Using known records, supply slope for O=C(Nc1ccccc1)C1=C(O)CC(c2ccoc2)CC1=Nc1ccccc1 (stereo not given)
Response: 0.00565

----------
Documented NADPH fluorescence slope across a set of compounds
tested.target: Voltage-gated potassium channel subunit beta-2 (Rattus norvegicus) (UniProt P62483)
Sequence (P62483 whole entry, looked up): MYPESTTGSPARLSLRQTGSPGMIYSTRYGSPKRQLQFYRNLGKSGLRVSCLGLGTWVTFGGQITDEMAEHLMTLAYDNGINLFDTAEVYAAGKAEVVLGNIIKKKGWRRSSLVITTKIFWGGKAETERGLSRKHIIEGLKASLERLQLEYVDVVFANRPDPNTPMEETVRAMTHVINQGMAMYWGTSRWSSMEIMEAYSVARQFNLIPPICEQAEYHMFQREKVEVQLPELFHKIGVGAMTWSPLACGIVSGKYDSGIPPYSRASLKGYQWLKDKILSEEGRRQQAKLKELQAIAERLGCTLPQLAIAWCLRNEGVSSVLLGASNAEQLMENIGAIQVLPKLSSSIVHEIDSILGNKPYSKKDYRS
test.protocol: KvBeta positive modulators, primary screen, biochemical, NADPH fluorescence (AID 623);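 note: fluorescence intensity change per second fitted from 20 to 320 s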
measurement.parameters: Recombinant KvBeta, NADPH fluorescence decrease slope, 10 min; at 10 µM; stronger effect = lower value
Give the figure by itself; no unit, no explanation.

Example compounds with recorded NADPH fluorescence slope:
compound: COc1ccc(C2NC(=O)NC(O)(C(F)(F)F)C2C(=O)c2ccc(F)cc2)cc1 (stereo unspecified)
NADPH fluorescence slope: -5.2e-05

compound: Cc1cc(C)nc(N(C#N)CN2C(=O)c3ccccc3C2=O)n1
NADPH fluorescence slope: -3.9e-05

compound: COc1ccc(N2C(=O)CC(N3CCCC4CCCCC43)C2=O)cc1 (stereo unspecified)
NADPH fluorescence slope: -3.7e-05

compound: COc1ccc(N2CCN(CCNC(=O)CCS(=O)(=O)c3cccc4nsnc34)CC2)cc1
NADPH fluorescence slope: -3.9e-05

compound: CCN(CC)S(=O)(=O)c1ccc(Br)c(OC)c1
NADPH fluorescence slope: -5.2e-05

Query: Tell me its NADPH fluorescence slope given COc1cc2c(cc1OC)CN(CC(=O)Nc1cccc(C)c1)CC2 as the entry.
Response: -1.8e-05

----------
test.protocol: inhibitors of E-selectin induction by TNFa, primary screen, imaging, HUVEC, immunofluorescence, MLSMR starter and 10KST1 sets (AID 487);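 note: 100% = median nuclei count of all wells on the same plate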
measurement.parameters: HUVEC TNFalpha-induced E-selectin immunofluorescence imaging, at 2 µM; measured here: cell number, toxicity
reported.metric: nuclei count (%)
Give the quantity in %, number only.

Consider the worked cases shown below.
compound: COC(=O)c1ccc2c(c1)nc(C)n2CCO
nuclei count [%]: 94.3

compound: O=C(Cn1cc2c(n1)CCCCC2)N1CCc2ccccc21
nuclei count [%]: 109

compound: COC(=O)c1sc(NC(=O)c2oc3ccccc3c2C)nc1C
nuclei count [%]: 150

compound: COc1ccc(CC(=O)Nc2cccc(-c3nnc(-c4ccco4)o3)c2)cc1
nuclei count [%]: 177

Query: Supply recorded nuclei count for Cc1cc(CN2CCN(CCC#N)CC2)c(O)c(C2(C)CCCCC2)c1 here.
Response: 90.4

Query: Answer with the recorded nuclei count for the compound listed here: CCS(=O)(=O)N1CCCC(c2nc(-c3cccc(OC)c3)no2)C1 (stereo unspecified)
Response: 104
